Experiment: protein stability index of a GFP-peptide fusion (yeast GPS) (PSI 1-4); higher = more stable; sorted into four equal gates, so the index is relative within each strain
Conditions: san1∆
Task for the reader: assign each of the following sequences its reported protein stability index.
Answers are plain numbers.

>  <seq.text>
ANATAAESDVAKQLAAL [RPL16A]

>  <protein stability index>
3.19

$$$$
>  <seq.text>
TGGGLFGSKPTGATSLF [YGL172W/NUP49]

>  <protein stability index>
3.56

$$$$
>  <seq.text>
LRRASATVPSAPYRKQI [YAR002W/NUP60]

>  <protein stability index>
2.07

$$$$
>  <seq.text>
PHLPFSKSENPVLSTIA [SWI3]

>  <protein stability index>
2.03

$$$$
>  <seq.text>
LQYYILEYMNTARINNR [RRI2]

>  <protein stability index>
1.96

$$$$
>  <seq.text>
RESRIVSTEGNVPQTLA [RPL21A]

>  <protein stability index>
2.94

$$$$
>  <seq.text>
GTLGEIFIRCNNVLYIR [SMX3]

>  <protein stability index>
2.9

$$$$
>  <seq.text>
TQKDSARVSPRNNVANK [YAR002W/NUP60]

>  <protein stability index>
3.23

$$$$

Kindly give each listed record's protein stability index.
1. FEYLATVMYQRRSKMNP [PRE4]
2. PNINTWQQVTALAQQKL [GAL11]
3. DRRKARKAYFTAPSSER [RPL26B]
4. NYNDLIVNYEDLATTQA [BRN1]
5. KKKTTLEDFENFKGLAK [YIL149C/MLP2]
6. NGKIWVKCEELSNTLAC [RRP40]
7. ILEEKTDLHLPKKEYDD [NSL1]

[2.6, 2.11, 3.12, 3.34, 2.96, 3.26, 2.21]

Kindly give each listed record's protein stability index.
1. THNFKLSGVSNSMDMVD [RGR1]
2. RLNKLNSNGIAMASLYL [SMD1]
3. IDAALDKQYRTAVATLL [SMC3]

1. 2.93
2. 2.78
3. 2.65

Kindly give each listed record's protein stability index.
1. AKSISTSAKEPSENDVF [RPO31]
2. DKINKYSLIRETNGYDP [SNF5]
3. RVQLSGKIQENIPFWKH [SRP72]
4. GRMDMTRLYDYEIRDID [SSN2]
5. DHFIHLRNLHMKRMVAQ [SNF12]

[2.56, 1.92, 2.13, 3.38, 2.77]

Kindly give each listed record's protein stability index.
1. DSLKKLLPQWDDDQIES [ARP9]
2. DPPNEGDPFDYKAQADT [RPB3]
3. AIACYSGYNQEDSMIMN [RPB2]

1. 2.83
2. 3.34
3. 2.67

Kindly give each listed record's protein stability index.
1. GSKMEAKNEDDPAHSLN [AAR2]
2. EPAIEEENGDSIKEHST [MED1]
3. LNWFRTTNMNVNNCIWA [RGR1]
4. DALVKRFKNSVKWYHFD [PRE7]

1.23
3.23
1.15
3.18

---

Task for the reader: assign each of the following sequences its reported protein stability index.
Test: protein stability index of a GFP-peptide fusion (yeast GPS) (PSI 1-4); higher = more stable; sorted into four equal gates, so the index is relative within each strain
Details: ubr1∆
Give bare numbers.

>  <seq.text>
PVSPLDIYSDEASAQKK [RPS2]

>  <value.reported>
3.02

$$$$
>  <seq.text>
ISWCSLSETNGLHKFVK [PRE10]

>  <value.reported>
2.44

$$$$

Note: attention shifts to another entry.
The sequence identified as GQVAIKTLVYLEKCEAE [YCS4] registered its protein stability index at 2.92
